# procedure.summary: Inhibition of HCV genotype 1b NS5B S96T mutant
# Design: species or system Hepatitis C virus subtype 1b
pIC50: −log10 of the molar value.
quantity.name: pIC50

compound: O=c1ccn([C@@H]2O[C@H](COP(=O)(O)OP(=O)(O)OP(=O)(O)O)C(O)C2(F)Cl)c(=O)[nH]1 (single isomer, unassigned)
observed.measurement: 4.89

====

# procedure.summary: Cytotoxicity against human CEM cells assessed as inhibition of cell proliferation after 4 days by MTT assay
# Format: cell-based, CCRF-CEM

compound: CC(C)OC(=O)[C@H](C)NP(=O)(OC[C@H]1O[C@@H](n2cnc3c(=O)[nH]c(N)nc32)[C@@](F)(Cl)[C@@H]1O)Oc1ccccc1 (stereo not given in full)
result.units: µM
cmp: >
CC50 at 96 h: 100
--
compound: CC(C)OC(=O)[C@H](C)N[P@](=O)(OC[C@H]1O[C@@H](n2ccc(=O)[nH]c2=O)[C@](C)(F)[C@@H]1O)Oc1ccccc1
result.units: µM
cmp: >
CC50 at 96 h: 100
--
compound: CC(C)OC(=O)[C@H](C)NP(=O)(OC[C@H]1O[C@@H](n2cc(I)c3c(N)ncnc32)C(F)(Cl)C1O)Oc1ccccc1 (single isomer, unassigned)
result.units: µM
cmp: =
CC50 at 96 h: 69.3
--
compound: Nc1ncnc2c1ncn2[C@@H]1O[C@H](CO)C(O)C1(F)Cl (single isomer, unassigned)
result.units: µM
cmp: >
CC50 at 96 h: 100
--
compound: CC(C)OC(=O)[C@H](C)NP(=O)(OC[C@H]1O[C@@H](n2cnc3c(N)ncnc32)C(F)(Cl)C1O)Oc1ccccc1 (single isomer, unassigned)
result.units: µM
cmp: =
CC50 at 96 h: 36.3
--
compound: O=c1ccn([C@@H]2O[C@H](CO)[C@@H](O)[C@]2(F)Cl)c(=O)[nH]1
result.units: µM
cmp: >
CC50 at 96 h: 100
--
compound: Nc1ncnc2c1c(I)cn2[C@@H]1O[C@H](CO)C(O)C1(F)Cl (single isomer, unassigned)
result.units: µM
cmp: =
CC50 at 96 h: 7.3
--
compound: CC(C)OC(=O)[C@H](C)NP(=O)(OC[C@H]1O[C@@H](n2ccc(=O)[nH]c2=O)[C@@](F)(Cl)[C@@H]1O)Oc1ccccc1 (mixture of isomers)
result.units: µM
cmp: >
CC50 at 96 h: 100
--
compound: Nc1ccn([C@@H]2O[C@H](CO)[C@@H](O)[C@]2(F)Cl)c(=O)n1
result.units: µM
cmp: >
CC50 at 96 h: 100
--
compound: CC(C)OC(=O)[C@H](C)NP(=O)(OC[C@H]1O[C@@H](n2cc(F)c3c(N)ncnc32)C(F)(Cl)C1O)Oc1ccccc1 (single isomer, unassigned)
result.units: µM
cmp: =
CC50 at 96 h: 55.3
--
compound: Nc1ncnc2c1c(F)cn2[C@@H]1O[C@H](CO)C(O)C1(F)Cl (single isomer, unassigned)
result.units: µM
cmp: =
CC50 at 96 h: 19.9
--
compound: Nc1nc2c(ncn2[C@@H]2O[C@H](CO)[C@@H](O)[C@]2(F)Cl)c(=O)[nH]1
result.units: µM
cmp: >
CC50 at 96 h: 100
--
compound: CC(C)OC(=O)[C@H](C)NP(=O)(OC[C@H]1O[C@@H](n2ccc3c(N)ncnc32)C(F)(Cl)C1O)Oc1ccccc1 (single isomer, unassigned)
result.units: µM
cmp: =
CC50 at 96 h: 69
--
compound: CC(C)OC(=O)[C@H](C)NP(=O)(OC[C@H]1O[C@@H](n2ccc(N)nc2=O)[C@@](F)(Cl)[C@@H]1O)Oc1ccccc1 (stereo not given in full)
result.units: µM
cmp: >
CC50 at 96 h: 100
--
compound: C[C@@]1(O)[C@H](O)[C@@H](CO)O[C@H]1n1ccc(N)nc1=O
result.units: µM
cmp: >
CC50 at 96 h: 100

Ref: ChEMBL document CHEMBL4014354
